biological target: maltase (porcine, intestinal mucosa); test: maltase inhibitory activity, maltose as substrate; settings: substrate 0.05 M maltose, pH 6.8, 37° C., read-out: IC50 (concentration of 50% inhibition)
MEASUREMENT NAME: IC50 (nM)
The answer is to be given in nM; state only the numeric part.

Query N[C@H]1C[C@](O)(CO)[C@@H](O)[C@H](O)[C@H]1O yields IC50 of 2200

* * *

Biological target: glucoamylase (Rhizopus mold) (Rhizopus oryzae, UniProt P07683)
Sequence (P07683 26-604): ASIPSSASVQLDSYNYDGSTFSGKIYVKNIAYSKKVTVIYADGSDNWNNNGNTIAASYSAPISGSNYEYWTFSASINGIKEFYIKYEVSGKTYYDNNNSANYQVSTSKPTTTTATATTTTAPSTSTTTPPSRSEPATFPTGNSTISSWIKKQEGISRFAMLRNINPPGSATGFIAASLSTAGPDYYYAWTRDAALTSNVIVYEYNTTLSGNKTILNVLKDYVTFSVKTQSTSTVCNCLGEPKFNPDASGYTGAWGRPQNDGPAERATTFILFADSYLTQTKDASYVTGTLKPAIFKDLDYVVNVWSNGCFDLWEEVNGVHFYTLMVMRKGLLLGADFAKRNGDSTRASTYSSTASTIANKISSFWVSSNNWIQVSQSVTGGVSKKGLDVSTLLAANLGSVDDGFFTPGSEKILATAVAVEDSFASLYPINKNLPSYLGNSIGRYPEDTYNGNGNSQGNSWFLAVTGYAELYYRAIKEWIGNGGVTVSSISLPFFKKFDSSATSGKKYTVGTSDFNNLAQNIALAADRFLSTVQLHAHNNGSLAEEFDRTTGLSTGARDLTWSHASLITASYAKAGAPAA
MEASUREMENT NAME: IC50
Write the figure, then the unit, nothing else.

Query N[C@H]1C[C@](O)(CO)[C@@H](O)[C@H](O)[C@H]1O [valiolamine] yields IC50 of 600 µM
